# target.entity: ΔStammer-ORF1p (Homo sapiens, UniProt Q9UN81 1-338, del91-93)
# Sequence (Q9UN81 other isoform, or with tags, fused parts or gaps del91-93 | mutant): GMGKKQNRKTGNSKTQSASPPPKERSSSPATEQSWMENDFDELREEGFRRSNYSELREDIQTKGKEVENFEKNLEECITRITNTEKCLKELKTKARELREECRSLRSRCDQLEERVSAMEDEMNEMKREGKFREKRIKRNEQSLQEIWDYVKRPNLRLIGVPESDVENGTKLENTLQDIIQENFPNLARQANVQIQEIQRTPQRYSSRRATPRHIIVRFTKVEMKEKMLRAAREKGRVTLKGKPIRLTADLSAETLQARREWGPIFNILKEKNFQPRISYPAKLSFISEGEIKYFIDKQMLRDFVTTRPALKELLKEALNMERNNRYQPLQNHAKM
# experimental.protocol: fluorescence anisotropy; 50 mM KCl; 20 mM Hepes pH 7.5, 50 mM KCl (150 or 300 mM in Fig. S1D rows), 1 mM MgCl2, 1 mM DTT; 1 nM 6-FAM oligo; temperature not stated
# condition.notes: protein: recombinant; tags: tag removed by TEV, N-terminal G left; chain copies: 3; label: 5' 6-FAM on strand 1 (anisotropy); blunt
measured.quantity: Kd (nM)
Hi! Could you send only the number? It should be in nM, unit omitted.

// lookup Kd for 30 bp dsDNA (dsDNA) DNA 1: ACCATCATCAAAGACCAAAAGTAGATAAAA DNA 2: TTTTATCTACTTTTGGTCTTTGATGATGGT
26.6
